Numbers sourced from patent US20200325187A1.

measured_on: hVEGF-A (human, UniProt P15692-4 27-191, limits assumed)
experiment: cell-based or functional assay
Recorded Cellular IC50, one value per entry.

binder	Cellular IC50
GCNIMLPFWGCGRDFECMEQCICQYYQSCG (designed binder) [VEGF_CKP9.54.90.67]	1.1 nM
GCNIMLPYWGCGRDFECFYECICQYYQSCG (designed binder) [VEGF_CKP9.54.90.62.F8Y]	1.14 nM
GCNIMLPFWGCGRDFECMSDCICQYYQSCG (designed binder) [VEGF_CKP9.54.90.12]	1.2 nM
GCNIMLPFWGCGRDFECFYECICQYYQSCG (designed binder) [VEGF_CKP9.54.90.62]	0.92 nM
